So I've got a bunch of compounds here, and I need their inhibition values.
Target: Sentrin-specific protease 6 (Homo sapiens) (UniProt Q9GZR1)
Sequence (Q9GZR1 628-1112 limits assumed): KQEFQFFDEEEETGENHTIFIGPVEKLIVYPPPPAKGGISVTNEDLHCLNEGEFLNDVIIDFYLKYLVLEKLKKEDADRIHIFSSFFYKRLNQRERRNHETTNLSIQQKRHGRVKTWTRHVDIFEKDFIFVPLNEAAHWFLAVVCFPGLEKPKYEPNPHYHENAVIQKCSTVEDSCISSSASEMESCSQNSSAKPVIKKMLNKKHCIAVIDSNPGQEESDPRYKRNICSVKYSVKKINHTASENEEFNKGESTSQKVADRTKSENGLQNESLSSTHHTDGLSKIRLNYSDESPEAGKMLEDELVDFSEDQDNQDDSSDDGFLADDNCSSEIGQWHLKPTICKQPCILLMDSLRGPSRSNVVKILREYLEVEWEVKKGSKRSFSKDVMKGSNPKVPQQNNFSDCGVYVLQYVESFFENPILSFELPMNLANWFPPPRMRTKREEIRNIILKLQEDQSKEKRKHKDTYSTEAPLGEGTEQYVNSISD
Test: SENP6 protease inhibitors, primary screen, biochemical, luminescence, uHTS (AID 2599);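 also: plate controls were DMSO wells with enzyme for no effect and DMSO wells lacking enzyme for full effect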
Conditions: Recombinant SENP6 catalytic domain, aminoluciferin luminescence; at 10 µM; hits give high values
Among all 330,000 compounds or so, about 5,800 (1.8%) were called active. The entries come from a sample that favours actives as a whole.

Could you share what inhibition was measured for COC(=O)c1ccc(Oc2nc(NC(C)C)nc(SC)n2)cc1 , tested on Sentrin-specific protease 6 (Homo sapiens) (UniProt Q9GZR1)?
-13.9% (inactive)

Could you share what inhibition was measured for COC(=O)C1=C(C(=O)OC)[C@@H]2N(C)c3ccccc3[C@@]23C[C@@H](C(=O)OC)N(C(C)=O)C3=N1 , tested on Sentrin-specific protease 6 (Homo sapiens) (UniProt Q9GZR1)?
3.79% (inactive)

Could you share what inhibition was measured for CCCCN(CC)C(=O)C1CCCN(S(=O)(=O)c2cccc3nsnc23)C1 (stereo not given) , tested on Sentrin-specific protease 6 (Homo sapiens) (UniProt Q9GZR1)?
8.83% (inactive)

Could you share what inhibition was measured for CCOc1ccc(OCC)c(NC(=O)CSc2nnc(Cn3cnc4ccccc43)n2C)c1 , tested on Sentrin-specific protease 6 (Homo sapiens) (UniProt Q9GZR1)?
3.46% (inactive)

Could you share what inhibition was measured for COc1ccc(-n2nnnc2-c2nc3ccccc3s2)cc1 , tested on Sentrin-specific protease 6 (Homo sapiens) (UniProt Q9GZR1)?
54.6% (active)

Could you share what inhibition was measured for COc1ccc(-c2csc(Cc3nc(O)cs3)n2)cc1 , tested on Sentrin-specific protease 6 (Homo sapiens) (UniProt Q9GZR1)?
25.6% (inactive)

Could you share what inhibition was measured for CC(C)(C)n1nc2c(c1NC(=O)c1cc3ccccc3o1)CSC2 , tested on Sentrin-specific protease 6 (Homo sapiens) (UniProt Q9GZR1)?
2.49% (inactive)

Could you share what inhibition was measured for O=C(O)/C=C/C(=O)NNc1ccc([N+](=O)[O-])cc1 , tested on Sentrin-specific protease 6 (Homo sapiens) (UniProt Q9GZR1)?
82.9% (active)

Could you share what inhibition was measured for Cc1cccc(-c2noc(CCC(=O)NC3CCCC3)n2)c1 , tested on Sentrin-specific protease 6 (Homo sapiens) (UniProt Q9GZR1)?
-13.6% (inactive)

Could you share what inhibition was measured for COc1cc2ccccc2cc1C(=O)Nc1ccncc1 , tested on Sentrin-specific protease 6 (Homo sapiens) (UniProt Q9GZR1)?
-5.66% (inactive)

Could you share what inhibition was measured for O=C(Nc1ccc(Cl)cc1)Nc1ccc(C(=O)N2CCOCC2)cc1 , tested on Sentrin-specific protease 6 (Homo sapiens) (UniProt Q9GZR1)?
-8.3% (inactive)

Could you share what inhibition was measured for CCOC(=O)C1(Cc2cccc(OC)c2)CCCN(S(=O)(=O)c2cccnc2)C1 (stereo not given) , tested on Sentrin-specific protease 6 (Homo sapiens) (UniProt Q9GZR1)?
-9.47% (inactive)

Could you share what inhibition was measured for Cn1c(=O)c(=O)n(C)c2cc(S(=O)(=O)NCCN3CCN(c4ccccc4F)CC3)ccc21 , tested on Sentrin-specific protease 6 (Homo sapiens) (UniProt Q9GZR1)?
-19.5% (inactive)

Could you share what inhibition was measured for COc1ccc2c(c1OC)C(=O)OC2Nc1nc(-c2ccccc2)cs1 (stereo not given) , tested on Sentrin-specific protease 6 (Homo sapiens) (UniProt Q9GZR1)?
-5.84% (inactive)

Could you share what inhibition was measured for Clc1ccc(Nc2nc(-c3cccs3)cs2)nc1 , tested on Sentrin-specific protease 6 (Homo sapiens) (UniProt Q9GZR1)?
35.3% (inactive)

Could you share what inhibition was measured for CCCC1NC(=O)NC(C)=C1C(=O)OCC (stereo not given) , tested on Sentrin-specific protease 6 (Homo sapiens) (UniProt Q9GZR1)?
-6.49% (inactive)

Could you share what inhibition was measured for CCOC(=O)CSc1nnc(-c2cccc(Br)c2)o1 , tested on Sentrin-specific protease 6 (Homo sapiens) (UniProt Q9GZR1)?
-8.5% (inactive)

Could you share what inhibition was measured for Fc1ccc(COc2ccc(-c3nnco3)cc2)cc1 , tested on Sentrin-specific protease 6 (Homo sapiens) (UniProt Q9GZR1)?
61.6% (active)

Could you share what inhibition was measured for O=[N+]([O-])c1ccc(N/N=C/c2ccccc2)cc1 , tested on Sentrin-specific protease 6 (Homo sapiens) (UniProt Q9GZR1)?
0.552% (inactive)

Could you share what inhibition was measured for Cc1c(Cl)cccc1NC(=O)Nc1ccc(C(=O)N2CCCC2)cc1 , tested on Sentrin-specific protease 6 (Homo sapiens) (UniProt Q9GZR1)?
61.5% (active)

Could you share what inhibition was measured for Cc1nnc(Nc2ccccc2F)s1 , tested on Sentrin-specific protease 6 (Homo sapiens) (UniProt Q9GZR1)?
8.06% (inactive)

Could you share what inhibition was measured for CNC(=O)c1sc(NCc2ccccc2OC)nc1C , tested on Sentrin-specific protease 6 (Homo sapiens) (UniProt Q9GZR1)?
8.32% (inactive)

Could you share what inhibition was measured for CCCn1c(CCNc2nc(-c3ccc(OC)cc3)cs2)nc2ccccc21 , tested on Sentrin-specific protease 6 (Homo sapiens) (UniProt Q9GZR1)?
1.04% (inactive)

Could you share what inhibition was measured for O=C(OCC(=O)N1CCN(c2ccccc2)CC1)c1ccc([N+](=O)[O-])s1 , tested on Sentrin-specific protease 6 (Homo sapiens) (UniProt Q9GZR1)?
49.4% (inactive)

Could you share what inhibition was measured for Cc1cccc(C2=N/C(=C/c3cccs3)C(=O)O2)c1 , tested on Sentrin-specific protease 6 (Homo sapiens) (UniProt Q9GZR1)?
9.27% (inactive)

Could you share what inhibition was measured for Cc1cccc(CSc2nc3c(c(=O)n2C)SCC3)c1 , tested on Sentrin-specific protease 6 (Homo sapiens) (UniProt Q9GZR1)?
21.2% (inactive)

Could you share what inhibition was measured for COc1ccccc1/C=N/Nc1nc(C)c(C(C)=O)s1 , tested on Sentrin-specific protease 6 (Homo sapiens) (UniProt Q9GZR1)?
-28% (inactive)

Could you share what inhibition was measured for O=C(Nn1c(-c2ccc(Cl)cc2)nc2ccccc2c1=O)c1cccnc1Cl , tested on Sentrin-specific protease 6 (Homo sapiens) (UniProt Q9GZR1)?
1.41% (inactive)

Could you share what inhibition was measured for COc1cccc(NC(=O)N2CCC(NC(=O)C(Cc3cccc(C)c3)NC(C)=O)CC2)c1 (stereo not given) , tested on Sentrin-specific protease 6 (Homo sapiens) (UniProt Q9GZR1)?
20.6% (inactive)

Could you share what inhibition was measured for CCCCCCC12CCC(C(=O)O)(CC1)CC2 , tested on Sentrin-specific protease 6 (Homo sapiens) (UniProt Q9GZR1)?
-27.4% (inactive)
